Reference source for all entries: patent US20260176265A1

Molecular target: Phospho-EGFR (Tyr1068) in A431 cells (Homo sapiens, UniProt P00533)
Construct: endogenous in cells
Sequence (P00533 25-1210): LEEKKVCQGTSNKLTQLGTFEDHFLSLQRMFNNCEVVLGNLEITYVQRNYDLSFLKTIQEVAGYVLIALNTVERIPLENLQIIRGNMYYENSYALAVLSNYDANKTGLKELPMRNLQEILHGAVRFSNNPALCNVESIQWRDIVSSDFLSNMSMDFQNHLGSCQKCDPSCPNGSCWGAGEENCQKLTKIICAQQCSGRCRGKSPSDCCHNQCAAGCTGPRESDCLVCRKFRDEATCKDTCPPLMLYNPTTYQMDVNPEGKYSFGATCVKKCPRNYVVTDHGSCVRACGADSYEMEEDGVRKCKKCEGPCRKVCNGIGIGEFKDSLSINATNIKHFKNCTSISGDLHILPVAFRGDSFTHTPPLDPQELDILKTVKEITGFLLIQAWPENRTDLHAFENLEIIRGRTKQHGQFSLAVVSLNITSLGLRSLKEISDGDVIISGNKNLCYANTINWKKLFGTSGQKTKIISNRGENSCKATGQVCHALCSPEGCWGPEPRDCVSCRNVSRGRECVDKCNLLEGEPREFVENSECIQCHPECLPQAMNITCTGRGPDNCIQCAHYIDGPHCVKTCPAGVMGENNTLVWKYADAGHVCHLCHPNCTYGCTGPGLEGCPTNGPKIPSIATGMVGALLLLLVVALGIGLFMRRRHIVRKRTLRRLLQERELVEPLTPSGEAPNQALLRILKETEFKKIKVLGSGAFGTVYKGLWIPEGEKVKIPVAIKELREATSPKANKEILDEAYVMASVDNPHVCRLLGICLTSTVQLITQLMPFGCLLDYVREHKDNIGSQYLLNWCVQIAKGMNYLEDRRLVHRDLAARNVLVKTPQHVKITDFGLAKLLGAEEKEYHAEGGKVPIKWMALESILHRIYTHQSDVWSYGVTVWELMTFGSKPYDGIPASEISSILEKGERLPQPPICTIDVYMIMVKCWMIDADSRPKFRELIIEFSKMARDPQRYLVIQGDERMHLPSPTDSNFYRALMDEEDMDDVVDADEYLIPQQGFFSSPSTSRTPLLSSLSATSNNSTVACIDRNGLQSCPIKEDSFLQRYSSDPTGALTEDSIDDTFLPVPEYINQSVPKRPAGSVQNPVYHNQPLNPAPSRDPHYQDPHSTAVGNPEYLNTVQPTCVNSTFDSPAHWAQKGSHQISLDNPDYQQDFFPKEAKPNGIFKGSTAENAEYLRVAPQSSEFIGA
Test: HTRF pEGFR/total EGFR assay in A431 cells (EGF stimulated)
Conditions: compound 2.5 hours then 100 ng/ml EGF 30 mins, ratio pEGFR/total EGFR
pIC50: −log10 of the molar value.
Parameter pIC50: see the listing below.

Some compounds with known pIC50 results, for comparison:
{"COMPOUND": "C#Cc1cc(NC(=O)c2ccccc2)nc2nc(Nc3ccc(N4CCN(C)CC4)cc3)ncc12 [Example 29]", "SYSTEM": "Phospho-EGFR (Tyr1068) in A431 cells (Homo sapiens, UniProt P00533)", "pIC50": "< 5.52"}
{"COMPOUND": "C#Cc1cc(NC(=O)NCc2cnco2)nc2nc(Nc3ccc(N4CCN(C)CC4)cc3)ncc12 [Example 45]", "SYSTEM": "Phospho-EGFR (Tyr1068) in A431 cells (Homo sapiens, UniProt P00533)", "pIC50": "< 5.52"}

Inquiry: Complete the entry with pIC50 for C#Cc1cc(NC(=O)NCC2CCCO2)nc2nc(Nc3ccc(N4CCN(C)CC4)cc3)ncc12 (stereo not drawn) [Example 50]
Reply text: < 5.52

Inquiry: Complete the entry with pIC50 for C#Cc1cc(N2C(=O)N(C)CC23CCCC3)nc2nc(Nc3ccc(N(C)C(=O)CN(C)C)cc3)ncc12 [Example 106]
Reply text: 5.52 to 6.00

Inquiry: Complete the entry with pIC50 for C#Cc1cc(NC(=O)NC2CCCC2)nc2nc(Nc3ccc(OCCN(C)C)cc3)ncc12 [Example 79]
Reply text: < 5.52
